Tested on: BT-549 breast
Run description: NCI tumour cell line growth inhibition, 48 h

- Compound: "COc1ccc2c(=O)c3cc([N+](=O)[O-])ccc3n(C)c2c1"
  TGI: "> 100 µM"
- Compound: "COc1ccc(N[C@H](CS(=O)c2ccc(C)cc2)C(F)(F)C(F)(F)F)cc1 (stereo not given in full)"
  TGI: "> 100 µM"
- Compound: "C[C@]12C=CC(=O)C=C1CC[C@@H]1[C@@H]2C(=O)C[C@@]2(C)[C@H]1CC[C@]2(O)C(=O)CO"
  TGI: "> 100 µM"
- Compound: "CC(=O)NCCc1c[nH]c2ccc(Cl)cc12"
  TGI: "> 100 µM"
- Compound: "Nc1nc(NNc2ccc(Cl)c(Cl)c2)cc(=O)[nH]1"
  TGI: "82.5 µM"

====

Below is a list of entries, each paired with its recorded TGI value.
System: NCI-H522 lung
Run description: NCI tumour cell line growth inhibition, 48 h

- Compound: "Clc1ccc(OC2CCO2)cc1Cl (stereo unspecified)"
  Assayed system: "NCI-H522 lung"
  TGI: "> 100 µM"
- Compound: "O=C1C2CCC(C2)C12CC1(c3ccccc3)C(=O)c3ccccc3N1O2 (stereo unspecified)"
  Assayed system: "NCI-H522 lung"
  TGI: "> 100 µM"
- Compound: "CC[C@@H](C(=O)[C@@H](C)[C@@H](O)[C@H](C)CCc1ccc(C)c(O)c1C(=O)O)[C@H]1O[C@](CC)([C@H]2CC[C@](O)(CC)[C@H](C)O2)C[C@@H]1C"
  Assayed system: "NCI-H522 lung"
  TGI: "3.11 µM"
- Compound: "Cc1ccc(-n2c(Cn3nnc(-c4cccnc4)n3)nn(C3OC(COC(=O)c4ccccc4)C(OC(=O)c4ccccc4)C3OC(=O)c3ccccc3)c2=S)cc1 (stereo unspecified)"
  Assayed system: "NCI-H522 lung"
  TGI: "> 100 µM"
- Compound: "CCOc1ccc(/C=C/[N+](=O)[O-])cc1"
  Assayed system: "NCI-H522 lung"
  TGI: "28 µM"
- Compound: "O=C(c1cccs1)c1c(C(F)(F)F)n([O-])c2ccc(F)cc2[n+]1=O"
  Assayed system: "NCI-H522 lung"
  TGI: "2.88 µM"
- Compound: "CC(C)[Si](OC1=C(C(=O)N(C)c2ccccc2Cl)CCC1)(C(C)C)C(C)C"
  Assayed system: "NCI-H522 lung"
  TGI: "28.6 µM"
- Compound: "N#CC1CCN2N=C(c3ccccc3)SC12c1ccccc1 (stereo unspecified)"
  Assayed system: "NCI-H522 lung"
  TGI: "> 100 µM"
- Compound: "COc1cccc(NC(=O)CC(=O)N2NC(C)C(N=Nc3cccc(C(=O)O)c3)C2=O)c1 (stereo unspecified)"
  Assayed system: "NCI-H522 lung"
  TGI: "> 100 µM"
- Compound: "CN1c2ccccc2S(=O)(=O)n2c(COc3ccc(Cl)cc3)nnc21"
  Assayed system: "NCI-H522 lung"
  TGI: "> 100 µM"
- Compound: "COc1ccc(C2=NN(c3ccccc3)C(c3cc4cc(Br)ccc4nc3Cl)C2)cc1 (stereo unspecified)"
  Assayed system: "NCI-H522 lung"
  TGI: "> 25 µM"
- Compound: "[C-]#[O+].[Cl][Sn]([Cl])[Cl].[Cl][Sn]([Cl])[Cl].[Pt].c1ccncc1"
  Assayed system: "NCI-H522 lung"
  TGI: "> 65.3 µM"
- Compound: "C=C1Oc2nc3ccccc3c(=O)n2C1(C)C"
  Assayed system: "NCI-H522 lung"
  TGI: "> 100 µM"
- Compound: "NC(=O)C(NC=O)c1ccccc1 (stereo unspecified)"
  Assayed system: "NCI-H522 lung"
  TGI: "> 100 µM"
- Compound: "O=C(Nc1nc2ccc([N+](=O)[O-])cc2[n+]([O-])n1)C(F)(F)F"
  Assayed system: "NCI-H522 lung"
  TGI: "> 100 µM"
- Compound: "COc1ccc([N-]/C(=N\\n2c(=O)c(C)nn(C)c2=S)N(c2ccc(OC)cc2)c2nn3c(=O)c(C)n[n+](C)c3s2)cc1"
  Assayed system: "NCI-H522 lung"
  TGI: "> 100 µM"

====

Test system: EKVX NSCLC
Run description: NCI tumour cell line growth inhibition, 48 h
Where a SMILES comes first, the peptide text is derived from it. [ ]: non-standard residue; d: D form. The star is where a group is joined. ξ: configuration not given here. NMeF = CN[C@@H](Cc1ccccc1)C(=O)O; ξNMeV = CNC(C(=O)O)C(C)C; Boc = CC(C)(C)OC(=O)*; OBn = c1ccc(CO*)cc1
Measured quantity: TGI

- Compound: "O=C1CC(=O)c2c(Cl)sc(Cl)c21"
  Measured quantity: "TGI"
  Reading: "> 100 µM"
- Compound: "Cc1cc(C(=O)N2CCN(Cc3ccccc3)CC2)c(C)o1"
  Measured quantity: "TGI"
  Reading: "> 100 µM"
- Compound: "NC(=O)C(NC=O)c1ccccc1 (stereo unspecified)"
  Measured quantity: "TGI"
  Reading: "> 100 µM"
- Compound: "CC(C)C(C(=O)N1CCC[C@@H]1C(=O)OCc1ccccc1)N(C)C(=O)C(C(C)C)N(C)C(=O)[C@H](Cc1ccccc1)N(C)C(=O)[C@H](NC(=O)OC(C)(C)C)C(C)C (stereo partly specified) (Boc-[dV][NMeF][ξNMeV][ξNMeV][dP]-OBn)"
  Measured quantity: "TGI"
  Reading: "> 100 µM"
- Compound: "CC1(C)CCc2cc3c(-c4ccccc4)cc(=O)oc3cc2O1"
  Measured quantity: "TGI"
  Reading: "> 100 µM"
- Compound: "O=C(O)C#CCO"
  Measured quantity: "TGI"
  Reading: "> 100 µM"
- Compound: "CC1(C)CC2C=C(C=O)C3(C=O)CC3(C)C2C1 (stereo unspecified)"
  Measured quantity: "TGI"
  Reading: "7.5 µM"
- Compound: "CCn1c(=O)ccc2ccc(N(CCO)CCO)nc21"
  Measured quantity: "TGI"
  Reading: "> 100 µM"
- Compound: "Cc1ccc2c(=O)c(-c3nnc(N)s3)c[nH]c2n1"
  Measured quantity: "TGI"
  Reading: "> 100 µM"
- Compound: "CCN(CC)CCNC(=O)c1cccc2cc3ccccc3nc12"
  Measured quantity: "TGI"
  Reading: "41.6 µM"
- Compound: "Cc1cc(-c2nc(-c3ccc(OC(F)(F)F)cc3)no2)nn1Cc1ccnc(N2CCN(C3CC3)CC2)c1"
  Measured quantity: "TGI"
  Reading: "> 51.6 µM"
- Compound: "Cc1ccc(-n2c(Cn3nnc(-c4cccnc4)n3)nn(C3OC(COC(=O)c4ccccc4)C(OC(=O)c4ccccc4)C3OC(=O)c3ccccc3)c2=S)cc1 (stereo unspecified)"
  Measured quantity: "TGI"
  Reading: "> 100 µM"
- Compound: "CCC1CC(=O)N(SCC(N)C(=O)O)C1=O (stereo unspecified)"
  Measured quantity: "TGI"
  Reading: "> 100 µM"
- Compound: "COC(=O)[C@@]1(C)CC[C@]2(C)CC[C@]3(C)C4=CC=C5C(=CC(=O)C(O)=C5C)[C@]4(C)CC[C@@]3(C)[C@@H]2C1"
  Measured quantity: "TGI"
  Reading: "1.11 µM"
- Compound: "C#CCOC(=O)C(N)CSSCC(N)C(=O)O (stereo unspecified)"
  Measured quantity: "TGI"
  Reading: "> 100 µM"
- Compound: "COc1cccc(NC(=O)CC(=O)N2NC(C)C(N=Nc3cccc(C(=O)O)c3)C2=O)c1 (stereo unspecified)"
  Measured quantity: "TGI"
  Reading: "> 100 µM"
- Compound: "O=C1Nc2ccccc2Nc2nc3cccccc-3c21"
  Measured quantity: "TGI"
  Reading: "> 100 µM"
- Compound: "CCOc1ccc(N=Nc2ccc3oc(=O)c(C(=O)Nc4ccc(OC)cc4)cc3c2)cc1"
  Measured quantity: "TGI"
  Reading: "86.7 µM"
- Compound: "CC1(C)C(=S)C(C)(C)C1=S"
  Measured quantity: "TGI"
  Reading: "> 100 µM"
- Compound: "COc1c(CNC(=O)CCl)cc2[nH]c(C)cc2c1CNC(=O)CCl"
  Measured quantity: "TGI"
  Reading: "27.5 µM"
- Compound: "CC(=O)OC1CC2(c3ccccc3)C(=O)c3ccccc3N2O1 (stereo unspecified)"
  Measured quantity: "TGI"
  Reading: "> 100 µM"
